Reference source: BindingDB's records for doi:10.1016/j.bmcl.2005.03.058

Target: UDP-N-acetylglucosamine 1-carboxyvinyltransferase (Escherichia coli (strain K12))
Sequence (P0A749 whole entry): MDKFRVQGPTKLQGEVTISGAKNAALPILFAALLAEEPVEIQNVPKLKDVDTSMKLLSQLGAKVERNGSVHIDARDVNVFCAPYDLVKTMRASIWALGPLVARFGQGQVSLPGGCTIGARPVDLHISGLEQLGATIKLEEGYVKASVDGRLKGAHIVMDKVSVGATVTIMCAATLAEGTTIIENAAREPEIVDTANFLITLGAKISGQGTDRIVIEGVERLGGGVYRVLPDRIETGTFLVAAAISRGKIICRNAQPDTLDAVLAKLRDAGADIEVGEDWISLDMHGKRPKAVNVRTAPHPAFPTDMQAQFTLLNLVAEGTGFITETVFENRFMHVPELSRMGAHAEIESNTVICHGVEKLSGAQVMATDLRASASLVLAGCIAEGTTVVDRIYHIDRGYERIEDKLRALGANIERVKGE
Experiment: Inhibitory concentration against MurA enzyme in Escherichia coli
Assignment: determine reported IC50 for the given compounds.

Hello, I would appreciate it if you could give IC50 for each entry below.
1. CCC(CC)Cc1c(O)n(-c2ccc(Cl)cc2)n(-c2ccc(Cl)cc2)c1=O
2. COc1cccc(Cc2c(O)n(-c3ccc(Cl)cc3)n(-c3ccc(Cl)cc3)c2=O)c1
3. O=c1c(Cc2ccccc2Cl)c(O)n(-c2ccc(Cl)cc2)n1-c1ccc(Cl)cc1
4. CCN(CCc1c(O)n(-c2ccc(Cl)cc2)n(-c2ccc(Cl)cc2)c1=O)Cc1ccccc1
5. CCN(CC)CCc1c(O)n(-c2ccc(Cl)cc2)n(-c2ccc(Cl)cc2)c1=O
6. O=c1c(Cc2ccccc2)c(O)n(-c2ccc(Cl)cc2)n1-c1ccc(Cl)cc1

[out]
1. > 50 µM
2. > 50 µM
3. > 50 µM
4. > 50 µM
5. > 50 µM
6. > 50 µM
